Test system: SW-620
Measurement notes: NCI tumour cell line growth inhibition, 48 h
Active and inactive are the calls of the source. No stated cut-off is given here; in the data, active = GI50 up to about 1.1 µM and inactive = higher.
Labels: YES for active, NO for inactive

Compound	Experimental system	Label
COc1cc(OC)c2c(=O)c(OC)c(-c3ccc4c(c3)OCO4)oc2c1	SW-620	NO
CC(=O)O/C(=C1\C[C@H]2[C@@H]3CC=C4C[C@@H](OC(C)=O)CC[C@]4(C)[C@H]3CC[C@]2(C)C1=O)C(F)(F)F	SW-620	NO
CC(C)(C)S(=O)OC12CC3CC(CC(C3)C1)C2 (stereo not given)	SW-620	NO
CCOC(=O)c1cn(CC)c2ccc3ccsc3c2c1=O	SW-620	NO
O=C1c2cc(CCl)sc2C(=O)c2ccsc21	SW-620	YES
CC(=O)Nc1ccc(CNc2cc(=O)n(C)c(=O)[nH]2)cc1	SW-620	NO
Cn1cc2ccccc2c1-c1nc(N)nc(F)n1	SW-620	NO
C(=N\Nc1nnc2c(n1)[nH]c1ccccc12)/c1cccnc1	SW-620	NO
O=C(Nc1cc(C(=O)Nc2cccc(S(=O)(=O)O)c2)cc(C(=O)Nc2cccc(S(=O)(=O)O)c2)c1)c1cccc(C(=O)Nc2cc(C(=O)Nc3cccc(S(=O)(=O)O)c3)cc(C(=O)Nc3cccc(S(=O)(=O)O)c3)c2)c1	SW-620	NO
CCOC(=O)c1cc(OC(=O)CC)c2c(OC)ccc(OC)c2c1	SW-620	NO

====

Tested on: MDA-MB-231
Measurement notes: NCI tumour cell line growth inhibition, 48 h
Activity calls are given as the source filed them. Rule as the data show it: active = GI50 up to about 1.1 µM and inactive = higher.
Labels: label 1 = active, label 0 = inactive

Compound	Experimental system	Label
COc1ccc(C[C@H]2COC(=O)[C@@H]2Cc2ccccc2)cc1OC	MDA-MB-231	label 0
COC(=O)C1(C)CCCC2(C)c3cc(OC)ccc3C(=O)C(Br)C12 (stereo not drawn)	MDA-MB-231	label 0
CC1(C)OCC(C2OC3OC(C)(C)OC3C2N)O1 (stereo not drawn)	MDA-MB-231	label 0
COc1cc([C@@H]2c3[nH]c4ccccc4c3C(Nc3ccc([N+](=O)[O-])cc3)[C@H]3COC(=O)N23)cc(OC)c1O (stereo partly drawn)	MDA-MB-231	label 1
O=C(NNC(=O)c1ccccc1S)c1ccccc1S [BIS(THIOSALICYL)HYDRAZIDE]	MDA-MB-231	label 0
Cc1cccc2c(O)c3c(O)cc(O)cc3nc12	MDA-MB-231	label 0
Cn1c(=O)c2[nH]c(/N=N\n3ccc4ccccc43)nc2n(C)c1=O	MDA-MB-231	label 0
Oc1ccc(/C=C/c2cc(O)cc3c2C(c2cc(O)cc(O)c2)C(c2ccc(O)c(O)c2)O3)cc1 (stereo not drawn)	MDA-MB-231	label 0
COC1C(O)CC(OC2CC(OC3CC(O[C@@H]4C(=O)c5c(cc6cc(OC7CC(OC8CC(O)C(O)C(C)O8)C(O)C(C)O7)c(C)c(O)c6c5O)C[C@H]4[C@H](OC)C(=O)[C@@H](O)[C@@H](C)O)OC(C)C3O)OC(C)C2O)OC1C (stereo partly drawn)	MDA-MB-231	label 1
Cc1ccc(OCC2OC(n3cnc4nc(Nc5ccc(Cl)c(Cl)c5)nc(Cl)c43)CC2Oc2ccc(C)cc2)cc1 (stereo not drawn)	MDA-MB-231	label 0
COc1cc(C[S+]([O-])c2ccc(O)cc2)cc(OC)c1OC (stereo not drawn)	MDA-MB-231	label 0
Nc1cc(C2CCCc3c2[nH]c2ccccc32)ccc1O (stereo not drawn)	MDA-MB-231	label 0
C[C@]12CC[C@H]3[C@@H](CC=C4C[C@@H](O)CC[C@@]43C)[C@@H]1C/C(=C\c1cccnc1)[C@@H]2O	MDA-MB-231	label 0
CC1Cc2c(cc(N)nc2Br)NC1=O (stereo not drawn)	MDA-MB-231	label 0
N#Cc1[nH]c(=O)n(-c2ccccc2)c1N	MDA-MB-231	label 0
CC1=NN(c2ccc(S(=O)(=O)O)cc2)C2(C1)SCC(=O)N2c1nc2ccccc2s1 (stereo not drawn)	MDA-MB-231	label 0
O=C1N/C(=N/N=C/C(O)C(O)C(O)C(O)CO)N/C1=C\c1c[nH]c2ccccc12 (stereo not drawn)	MDA-MB-231	label 0
COc1ccc(C(NS(=O)(=O)c2ccc(C)cc2)c2c(C(CBr)OC)c3ccccc3n2S(=O)(=O)c2ccccc2)cc1OC (stereo not drawn)	MDA-MB-231	label 0
